The measurements presented in this section are drawn from BindingDB's records for patent US20240124450.

tested-target: Serine/threonine-protein kinase SIK1 (Homo sapiens)
Sequence (P57059 whole entry): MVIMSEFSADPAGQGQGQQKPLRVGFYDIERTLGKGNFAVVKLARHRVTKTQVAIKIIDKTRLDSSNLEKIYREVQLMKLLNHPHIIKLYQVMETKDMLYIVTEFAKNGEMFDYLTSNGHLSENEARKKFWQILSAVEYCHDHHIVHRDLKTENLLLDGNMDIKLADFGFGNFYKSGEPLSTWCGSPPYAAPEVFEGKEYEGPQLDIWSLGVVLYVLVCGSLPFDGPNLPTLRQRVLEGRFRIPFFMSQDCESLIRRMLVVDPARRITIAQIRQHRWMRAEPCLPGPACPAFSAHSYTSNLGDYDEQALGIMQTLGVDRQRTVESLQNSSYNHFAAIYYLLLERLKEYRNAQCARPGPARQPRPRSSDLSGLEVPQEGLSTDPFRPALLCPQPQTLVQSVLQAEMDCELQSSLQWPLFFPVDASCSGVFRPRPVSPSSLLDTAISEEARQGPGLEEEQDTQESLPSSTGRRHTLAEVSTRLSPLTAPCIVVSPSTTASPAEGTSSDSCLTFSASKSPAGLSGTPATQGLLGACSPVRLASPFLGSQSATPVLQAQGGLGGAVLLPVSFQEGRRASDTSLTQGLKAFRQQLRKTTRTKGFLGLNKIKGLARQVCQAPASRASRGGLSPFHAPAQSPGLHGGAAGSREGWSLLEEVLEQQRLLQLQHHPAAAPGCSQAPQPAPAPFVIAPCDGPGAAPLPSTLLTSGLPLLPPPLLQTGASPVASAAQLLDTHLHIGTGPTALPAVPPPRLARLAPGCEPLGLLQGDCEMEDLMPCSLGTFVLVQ
pIC50: −log10 of the molar value.
Here the recorded pIC50 is given for each entry.
value-kind: pIC50

{"molecule": "CC[C@@H]1CCC[C@@]1(N)COc1cc(-c2cnc3cccc(OC)n23)cc(SC)c1C#N (mixture of isomers)", "readout-number": 9.05}
{"molecule": "CC[C@@H]1CCC[C@](N)(COc2cc(-c3cnc4cccc(OC)n34)cc(OC)c2C#N)C1", "readout-number": 9.10}
